Measured values drawn from patent US20230183354A1 for this set.

- Tested System: T1, human CD103 (integrin Alpha-E) / human integrin Beta-7 heterodimer on cells (human, UniProt P38570 19-1179; P26010 20-798)
- T1 construct: the assay field tells which cells; also called hCD103/hBeta7; CHO.K1-hCD103/hBeta7
- T1 sequence (P38570 19-1179 limits assumed, chain 1 of 2): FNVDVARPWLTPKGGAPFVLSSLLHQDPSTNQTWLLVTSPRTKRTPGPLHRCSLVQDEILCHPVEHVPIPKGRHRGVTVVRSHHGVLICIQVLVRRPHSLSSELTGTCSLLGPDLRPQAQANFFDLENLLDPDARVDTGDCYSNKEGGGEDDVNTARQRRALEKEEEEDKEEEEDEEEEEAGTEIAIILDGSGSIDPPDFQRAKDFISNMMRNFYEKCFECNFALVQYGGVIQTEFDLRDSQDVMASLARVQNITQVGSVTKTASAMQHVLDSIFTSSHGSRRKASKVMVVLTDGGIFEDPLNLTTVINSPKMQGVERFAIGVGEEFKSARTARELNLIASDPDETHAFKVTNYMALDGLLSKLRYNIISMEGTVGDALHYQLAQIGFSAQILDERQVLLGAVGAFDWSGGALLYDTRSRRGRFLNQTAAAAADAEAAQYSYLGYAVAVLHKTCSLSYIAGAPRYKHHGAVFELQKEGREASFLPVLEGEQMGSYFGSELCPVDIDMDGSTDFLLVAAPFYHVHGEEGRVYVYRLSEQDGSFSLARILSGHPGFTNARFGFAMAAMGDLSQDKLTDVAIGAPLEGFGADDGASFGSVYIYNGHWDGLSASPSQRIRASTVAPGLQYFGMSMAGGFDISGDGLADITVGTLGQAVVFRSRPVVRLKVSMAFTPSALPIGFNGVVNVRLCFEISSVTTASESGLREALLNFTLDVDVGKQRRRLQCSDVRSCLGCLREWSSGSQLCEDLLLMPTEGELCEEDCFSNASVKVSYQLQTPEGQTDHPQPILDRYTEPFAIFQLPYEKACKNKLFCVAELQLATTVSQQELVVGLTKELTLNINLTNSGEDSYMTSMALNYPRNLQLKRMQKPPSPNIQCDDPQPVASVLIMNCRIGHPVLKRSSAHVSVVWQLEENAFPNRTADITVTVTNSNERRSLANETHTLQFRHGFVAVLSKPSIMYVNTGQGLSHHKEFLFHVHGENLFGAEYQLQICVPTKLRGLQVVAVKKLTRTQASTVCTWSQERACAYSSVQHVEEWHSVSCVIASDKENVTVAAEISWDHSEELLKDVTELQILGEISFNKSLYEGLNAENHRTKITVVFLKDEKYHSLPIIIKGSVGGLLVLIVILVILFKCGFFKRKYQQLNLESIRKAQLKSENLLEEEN
- T1 sequence (P26010 20-798 limits assumed, chain 2 of 2): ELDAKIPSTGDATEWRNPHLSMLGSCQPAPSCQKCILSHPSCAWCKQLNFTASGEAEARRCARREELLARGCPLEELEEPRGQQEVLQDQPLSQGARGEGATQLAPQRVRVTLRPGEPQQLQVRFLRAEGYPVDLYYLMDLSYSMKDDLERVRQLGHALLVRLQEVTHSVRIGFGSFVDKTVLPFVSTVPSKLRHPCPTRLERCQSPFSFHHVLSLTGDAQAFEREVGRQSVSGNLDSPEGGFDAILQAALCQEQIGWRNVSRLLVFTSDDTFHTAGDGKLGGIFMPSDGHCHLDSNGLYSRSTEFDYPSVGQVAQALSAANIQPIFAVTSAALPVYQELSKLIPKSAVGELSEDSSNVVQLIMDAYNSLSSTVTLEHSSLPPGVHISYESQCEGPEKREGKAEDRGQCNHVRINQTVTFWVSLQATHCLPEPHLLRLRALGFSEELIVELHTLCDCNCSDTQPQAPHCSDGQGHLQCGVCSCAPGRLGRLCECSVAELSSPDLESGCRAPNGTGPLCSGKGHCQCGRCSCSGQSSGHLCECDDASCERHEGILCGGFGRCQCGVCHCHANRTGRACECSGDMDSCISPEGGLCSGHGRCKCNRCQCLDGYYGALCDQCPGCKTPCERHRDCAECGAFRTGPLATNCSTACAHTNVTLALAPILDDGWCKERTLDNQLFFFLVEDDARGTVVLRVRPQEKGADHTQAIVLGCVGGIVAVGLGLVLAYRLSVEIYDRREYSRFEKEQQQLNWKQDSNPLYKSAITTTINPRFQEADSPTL
- Assay: flow cytometry competition on CD103+CD8+ T cells; pre-incubation with unlabeled 02A; table n=2
Reported Property: % binding of the fluorescently labeled mAb (IgG pre-incubation = 100) (%)
Lab book: enter the figure in %, no units written.

binder="hCD103.05A (antibody, mouse IgG1, V domains shown, Also tested labelled with AF647, conjugated with Df and labelled with 89Zr; these are written under this molecule; also called clone 05A; hCD103.05 mAb) VH: EVQLQQSGPELEKPGASAKISCKASGYSFTGYNMNWVKQSNGKSLEWIGNIDPYYGGTSYNQKFKGKATLTVDKSSSTAYMQLKSLTSEDSAVYYCARSFYGYDAGSPYNYAMDYWGQGTPVTVSP VL: DIVMTQSHKFMSTSVGDRVSITCKASQDVGTFVAWYQQKPGQSPKLLIYWASTRHTGVPDRFTGSGSGTDFTLTISNVQSEDLADYFCHQYSSYPYTFGGGTQLEIK" assay_value=4.6

Data request: What does the data say about its % binding of the fluorescently labeled mAb (IgG pre-incubation = 100)? Entry: hCD103.06A (antibody, mouse IgG1, V domains shown, also called clone 06A; hCD103.06 mAb) VH: QVQLQQPGSELVRPGASVKLSCKASGYTFTSYWMHWVKQRHGQGLEWIGNIYPGSGSTNYDEKFKSKGTLTVDTSSSTAYMHLSSLTSEDSAVYYCTRGVYDNPYYFDYWGQGTTLTVSS VL: DIQMTQSSSNLSVSLGGRVTITCKASDHINNWLAWYQQKPGNAPRVLISGATSLETGVPSRFSGSGSGKDYTLSITSLQTEDVATYYCQQYWSIPLTFGAGTKLELK
Data returned: 103

Data request: What does the data say about its % binding of the fluorescently labeled mAb (IgG pre-incubation = 100)? Entry: hCD103.01A (antibody, V domains shown, Also tested labelled with AF647, conjugated with Df and labelled with 89Zr; these are written under this molecule; also called clone 01A; hCD103.01 mAb) VH: EVQLQESGPSLVKPSQTLSLTCSVTGDSITSGYWNWIRKFPGNKLEYMGYITYSGSTYYNPSLKSRISITRDTSKNQYYLQLNSVTTEDTATYYCTRHYYGSDAMDYWGQGTSVTVSS VL: DIVMTQSHKFMSTSVGDRVSITCKASQDVSIAVAWYQQRPGQSPKLLIYSASYRYTGVPDRFTGSGSGTDFTFTISSVQAEDLAVYYCQQHYSTPWTFGGGTKLEIK
Data returned: 3

Data request: What does the data say about its % binding of the fluorescently labeled mAb (IgG pre-incubation = 100)? Entry: hCD103.07A (antibody, mouse IgG1, V domains shown, also called clone 07A) VH: EVQLQESGPSLVKPSQTLSLTCSVTGDSITSGYWNWIRKFPGNKLEYMGYITYSGSTYYNPSLKSRISITRDTSKNQYYLQLNSVTTEDTATYYCARNYYGSSSMDYWGQGTSVTVSS VL: DIVMTQSQKFMSTSVADRVSVTCKASQNVGSDVAWYQQKPGQSPKSLIYSASYRYSGVPDRFTGSGSGTDFTLTISNVQSEDLAEYFCQQYNSYPSTFGGGTKLEIK
Data returned: 0.9
